Test system: UO-31
Assay: Growth inhibition of human UO-31 cells assessed as cell growth at 10 uM incubated for 48 hrs by sulforhodamine B assay relative to control
Type: functional
Conditions: read-out: Activity
Assign growth at 10 µM to each entry below.
One number for each entry, in %.

Examples from the recorded data:
> print(dat)
                                smilesentry        valuekind  valueunit  valuemeasured
1  CCN(CC)CC(=O)Nc1cccc(C(=O)Nc2cc(CO)cc(NC(C)=O)c2)c1  growth at 10 µM          %           96.6
2  CC(=O)Nc1cccc(NC(=O)c2ccc(C(=O)Nc3cc(CCl)cc(NC(C)=O)c3)cc2)c1  growth at 10 µM          %            104
3  CC(=O)Nc1cc(CO)cc(NC(=O)c2ccc(NC(=O)CCCN3CCOCC3)cc2)c1  growth at 10 µM          %           86.6

Give me growth at 10 µM for each of these molecules, listed below.
1. CC(=O)Nc1cc(CO)cc(NC(=O)c2ccc(C(=O)NCCCN3CCOCC3)cc2)c1
2. CC(=O)Nc1cc(CO[Si](C)(C)C(C)(C)C)cc(NC(=O)c2ccc(C(=O)Nc3cccc(NC(=O)CCCN(C)C)c3)cc2)c1

[out]
[100, 105]

Give me growth at 10 µM for each of these molecules, listed below.
1. CC(=O)Nc1cc(CCl)cc(NC(=O)c2ccc(C(=O)Nc3cccc(NC(=O)CCCN(C)C)c3)cc2)c1
2. CC(=O)Nc1cc(CO)cc(NC(=O)c2cccc(NC(=O)CCCN3CCOCC3)c2)c1
3. CC(=O)Nc1cc(CCl)cc(NC(=O)c2ccc(C(=O)NCCCN(C)C)cc2)c1
4. CCN(CC)CC(=O)Nc1ccc(C(=O)Nc2cc(CO)cc(NC(C)=O)c2)cc1
5. CC(=O)Nc1ccc(C(=O)Nc2cc(CO)cc(NC(C)=O)c2)cc1
6. CC(=O)Nc1cc(CO)cc(NC(=O)c2ccc(C(=O)NCCCN(C)C)cc2)c1
7. CC(=O)Nc1cc(CO)cc(NC(=O)c2ccc(C(=O)Nc3cccc(NC(=O)CCCN(C)C)c3)cc2)c1
8. CC(=O)Nc1cc(CO)cc(NC(=O)c2ccc(C(=O)Nc3cc(CO)cc(NC(C)=O)c3)cc2)c1

[out]
1. 98
2. 95.5
3. 103
4. 97.8
5. 101
6. 98.1
7. 112
8. 97.1

Give me growth at 10 µM for each of these molecules, listed below.
1. CC(=O)Nc1cc(CO)cc(NC(=O)c2ccccc2)c1
2. CC(=O)Nc1cccc(NC(=O)c2ccc(C(=O)Nc3cc(CO)cc(NC(C)=O)c3)cc2)c1

[out]
[95.5, 100]
